Data provenance is PubChem BioAssay (NCI).

Tested on: HCC-2998 colon
Assay: NCI-60 one-dose screen, 48 h (100 = growth as untreated, 0 = no growth, -100 = all killed)
Conditions: 10 µM unless noted
About 83,000 compounds went through this panel and 20% of them were active in at least one assay; those are over-represented in the sample as a whole. Activity calls are given as the source filed them. The calls were made as follows: active = growth percent below 10; inactive = the rest.
The entries below come with measured growth values attached.
Metric Name: growth

# Input Smiles, Metric Name, Meas Value
data = [
    ("CCN(CC)CCOc1ccc(/C(=C(\\C)Cc2ccc(OC)cc2)c2ccc(O)cc2)cc1", "growth", "0.439% (active)"),
    ("Cc1nn(-c2ccccc2)c(Oc2ccccc2)c1/C=N/NC(=O)Cn1c(=O)sc2ccccc21", "growth", "72.2% (inactive)"),
    ("CCOC(=O)c1cc(C(=O)c2cc(OC)cc(OC)c2)n2ncccc12", "growth", "66.7% (inactive)"),
    ("Cc1cc(N2CCOCC2)nc(N(CCCNc2ccnc3cc(Cl)ccc23)Cc2ccc3c(c2)OCO3)n1", "growth", "-58.2% (active)"),
]

----------
Test system: MDA-MB-231 breast
Assay: NCI-60 one-dose screen, 48 h
Settings: 10 µM unless noted
Compounds without any hit were thinned out: in the full panel of roughly 83,000, 20% have a hit. Calls of active or inactive are those of the source. Rule for the calls: active = growth percent below 10; inactive = the rest.
Outcomes: active, inactive

# Compound, Label
measured = [
    ("C=CCOC(=O)C1=C(C)N(CC)C(=O)N(CC)C1c1c(Cl)n(C)c2ccccc12 (stereo not drawn)", "inactive"),
    ("CCOC(=O)c1c(NC(=S)Nc2ccc([N+](=O)[O-])cc2)sc2c1CCCCC2", "inactive"),
    ("CN(C)CC1C(=O)O[C@H]2[C@H]1CC/C(COC(=O)NCc1ccc(Cn3c(=O)sn(CCCI)c3=O)cc1)=C\\CC[C@@]1(C)O[C@@H]21 (stereo partly drawn)", "inactive"),
    ("CCN1C(=O)N(CC)C2C1NN=c1s/c(=C\\c3ccc(F)cc3)c(=O)n12 (stereo not drawn)", "inactive"),
    ("COc1cccc(/C=C2\\CCc3ccccc3C2=O)c1", "inactive"),
    ("COC(=O)[C@@H](Cc1c[nH]c2ccccc12)NC(=O)[C@H](Cc1ccccc1)NCc1ccncc1", "inactive"),
    ("CC(C)c1nc(N(C)S(C)(=O)=O)nc(-c2ccc(F)cc2)c1/C=C/C(=O)C[C@@H](O)CC(=O)O", "inactive"),
    ("Cc1c(CC(=O)Nc2ccccc2)nnn1-c1ccccc1", "inactive"),
    ("CCCCN(CCC#N)C(N)=O", "inactive"),
    ("COc1cccc(-c2nn(-c3ccccc3)cc2-c2ccnc(-c3cccnc3)c2)c1", "inactive"),
    ("CCNc1nc(-c2ccc(Cl)c(OC)c2)c(-c2ccnc(NCCNS(=O)(=O)c3ccc(Cl)cc3)n2)s1", "active"),
    ("CN1CCN(Cc2ccc(NC(=O)c3cncc(C#Cc4c(N)ncc5c(F)cccc45)c3)cc2C(F)(F)F)CC1", "active"),
    ("Cn1ccnc1C(=O)/C=C/c1ccc(C(=O)Nc2c(F)c(F)c(F)c(F)c2F)cc1", "active"),
]

----------
System: COLO 205 colon
Experiment: NCI-60 one-dose screen, 48 h
Conditions: 10 µM unless noted
Compounds without any hit were thinned out: in the full panel of roughly 83,000, 20% have a hit. Calls of active or inactive are those of the source. How the source made its calls: active means growth percent below 10; inactive means the rest.
Classes used: class 1 for active, class 0 for inactive

# Molecule, Label
records = [
    ("Cc1ccccc1NC(=O)Cn1cc(CN2CCN(c3ccnc4cc(Cl)ccc34)CC2)nn1", "class 0"),
    ("CN1C(=O)N(C)C2C1NN=c1s/c(=C\\c3ccccc3F)c(=O)n12 (centres undefined)", "class 1"),
    ("Oc1ccc(Cc2ccc(O)c3ncccc23)c2cccnc12", "class 0"),
    ("CCOC(=O)C#Cc1c(CC(=O)OCC)nnn1[C@H]1O[C@@H](CO)[C@@H]2OC(C)(C)O[C@@H]21", "class 1"),
    ("CC(Cc1cccc2ccccc12)C(N)=O (centres undefined)", "class 0"),
    ("Cc1c(CC(=O)Nc2ccccc2)nnn1-c1ccccc1", "class 0"),
    ("Cc1[nH]c(C(=O)Nc2ccccc2OC2CCNC2)c(Cl)c1Cl (centres undefined)", "class 0"),
    ("CC(=O)Cc1nsc(NC(=O)c2cc(-c3cc(Cl)ccc3Cl)oc2C)n1", "class 0"),
    ("CC1OC(C(=O)N2CCN(CCO)CC2)CC1COC1CCCCC1 (centres undefined)", "class 0"),
    ("C=C1C(=O)O[C@H]2[C@H]1CC/C(CNC(=O)/C=C/c1cc(OC)c(OC)c(OC)c1)=C\\CC[C@@]1(C)O[C@@H]21", "class 1"),
    ("COc1cccc(CNc2nnc(C)c(C)n2)c1O", "class 0"),
    ("CS(=O)(=O)c1cccc(Nc2ncc3cc(-c4ccccc4Cl)ccc3n2)c1", "class 1"),
    ("Nc1c(C(=O)c2ccc(Cl)cc2)sc(Nc2ccccc2)c1-c1nc2ccccc2s1", "class 0"),
    ("CCOC(=O)CC1CSC(N/N=C/c2ccc(O)cc2)=N1 (centres undefined)", "class 0"),
]
